# System name: ERRγ (Homo sapiens, UniProt P62508)
# Sequence (P62508 whole entry): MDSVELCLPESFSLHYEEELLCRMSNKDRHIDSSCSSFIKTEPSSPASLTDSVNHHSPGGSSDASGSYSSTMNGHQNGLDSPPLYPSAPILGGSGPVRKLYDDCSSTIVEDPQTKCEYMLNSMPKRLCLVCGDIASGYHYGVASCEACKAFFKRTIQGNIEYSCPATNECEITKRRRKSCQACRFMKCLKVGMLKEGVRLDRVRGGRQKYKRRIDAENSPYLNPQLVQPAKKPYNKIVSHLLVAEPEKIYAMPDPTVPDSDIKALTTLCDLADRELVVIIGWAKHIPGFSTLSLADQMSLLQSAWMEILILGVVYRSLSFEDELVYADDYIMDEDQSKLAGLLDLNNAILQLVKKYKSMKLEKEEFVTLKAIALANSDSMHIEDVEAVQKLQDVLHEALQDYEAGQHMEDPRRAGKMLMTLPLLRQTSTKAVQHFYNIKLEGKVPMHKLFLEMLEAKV
# Method summary: ERRE luciferase reporter assay in HEK293 cells transfected with pcDNA3.1 ERRγ
# Condition: 24 hours treatment, luciferase activity
Here, each record is paired with measured EC50 data.

{"columns": ["Compound", "System name", "EC50"],
 "data": [
  ["Cc1nc[nH]c1C1CC(c2ccc(Br)cc2)=NN1 (stereo not drawn)", "ERRγ (Homo sapiens, UniProt P62508)", "> 5 µM"],
  ["COc1ccc(C2=NNC(c3cccc(Cl)c3O)C2)cc1 (stereo not drawn)", "ERRγ (Homo sapiens, UniProt P62508)", "1 to 5 µM"],
  ["Fc1cccc(C2=NNC(c3ccc4ccccc4c3)C2)c1 (stereo not drawn)", "ERRγ (Homo sapiens, UniProt P62508)", "1 to 5 µM"],
  ["Oc1ccccc1C1=NNC(c2ccc(Br)cc2)C1 (stereo not drawn)", "ERRγ (Homo sapiens, UniProt P62508)", "1 to 5 µM"],
  ["Oc1cccc(C2=NNC(c3ccc4ccccc4c3)C2)c1 (stereo not drawn)", "ERRγ (Homo sapiens, UniProt P62508)", "1 to 5 µM"],
  ["Oc1ccc2cc(C3CC(c4ccccc4F)=NN3)ccc2c1 (stereo not drawn)", "ERRγ (Homo sapiens, UniProt P62508)", "1 to 5 µM"],
  ["COc1ccccc1C1=NNC(c2ccccc2O)C1 (stereo not drawn)", "ERRγ (Homo sapiens, UniProt P62508)", "1 to 5 µM"],
  ["Oc1cccc(C2=NNC(c3ccc(Br)cc3)C2)c1 (stereo not drawn)", "ERRγ (Homo sapiens, UniProt P62508)", "1 to 5 µM"],
  ["COc1ccc(C2=NNC(c3ccccc3O)C2)cc1 (stereo not drawn)", "ERRγ (Homo sapiens, UniProt P62508)", "< 1 µM"],
  ["Oc1ccc(C2CC(c3ccccc3O)=NN2)cc1 (stereo not drawn)", "ERRγ (Homo sapiens, UniProt P62508)", "> 5 µM"],
  ["Oc1ccccc1C1CC(c2ccc(C(F)(F)F)cc2)=NN1 (stereo not drawn)", "ERRγ (Homo sapiens, UniProt P62508)", "1 to 5 µM"],
  ["Oc1cccc(C2CC(c3ccc(F)cc3)=NN2)c1 (stereo not drawn)", "ERRγ (Homo sapiens, UniProt P62508)", "> 5 µM"],
  ["COc1ccc(C2=NNC(c3ccccc3)C2)c(O)c1 (stereo not drawn)", "ERRγ (Homo sapiens, UniProt P62508)", "< 1 µM"],
  ["Oc1cccc(C2CC(c3ccc(Cl)cc3)=NN2)c1 (stereo not drawn)", "ERRγ (Homo sapiens, UniProt P62508)", "< 1 µM"],
  ["Oc1ccccc1C1=NNC(c2ccccc2)C1 (stereo not drawn)", "ERRγ (Homo sapiens, UniProt P62508)", "1 to 5 µM"],
  ["Oc1ccccc1C1=NNC(c2ccc(Br)cc2O)C1 (stereo not drawn)", "ERRγ (Homo sapiens, UniProt P62508)", "> 5 µM"],
  ["Cc1ccc(C2CC(c3ccc(Br)cc3)=NN2)c(O)c1 (stereo not drawn)", "ERRγ (Homo sapiens, UniProt P62508)", "> 5 µM"],
  ["Oc1ccc(C2CC(c3ccc(F)cc3)=NN2)cc1 (stereo not drawn)", "ERRγ (Homo sapiens, UniProt P62508)", "> 5 µM"],
  ["Oc1ccc(C2CC(c3cccc(O)c3)=NN2)cc1 (stereo not drawn)", "ERRγ (Homo sapiens, UniProt P62508)", "1 to 5 µM"],
  ["COc1cccc(C2CC(c3ccc(C(F)(F)F)cc3)=NN2)c1O (stereo not drawn)", "ERRγ (Homo sapiens, UniProt P62508)", "1 to 5 µM"],
  ["Oc1ccccc1C1CC(c2ccccc2)=NN1 (stereo not drawn)", "ERRγ (Homo sapiens, UniProt P62508)", "1 to 5 µM"],
  ["Oc1ccccc1C1CC(c2cccnc2)=NN1 (stereo not drawn)", "ERRγ (Homo sapiens, UniProt P62508)", "> 5 µM"],
  ["Fc1ccccc1C1=NNC(c2ccc3ccccc3c2)C1 (stereo not drawn)", "ERRγ (Homo sapiens, UniProt P62508)", "< 1 µM"],
  ["Oc1ccccc1C1CC(c2ccc(Cl)cc2)=NN1 (stereo not drawn)", "ERRγ (Homo sapiens, UniProt P62508)", "1 to 5 µM"]
]}
